Field: pIC50. Provide a value for each of the binders that follow.
Molecular target: IGF-1 (human, UniProt P05019)
Sequence (P05019 49-118): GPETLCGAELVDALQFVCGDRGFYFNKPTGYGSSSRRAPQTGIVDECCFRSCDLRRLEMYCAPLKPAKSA
Assay: competition, IGF-1 phage binding to IGFBP-1
Give bare numbers, as −log10 of the molar value.

Here are 2 binders together with their reported answers.
INSERT INTO results (binder, experimental_readout, val) VALUES
  ('MDCLASVEALKWCMYG [F1-2]', 'pIC50', 4.81),
  ('RNCFESVAALRRCMYG [F1-1]', 'pIC50', 5.85);

Lab book: pIC50 of FECLTSVEALRGCMYG [F1-3] noted as 4.93
